assayDetails: Cytotoxicity by LDH release (CyQUANT LDH Cytotoxicity Assay)
Type: cell-based
recordedConditions: human; HCE-2, 4 μM, 45 min contact, measured at 24 h; read-out: cytotoxicity (% of dead cells, LDH)
readoutLabel: cytotoxicity at 24 h, 4 µM (%)
Unit % implied. Number only.

stdin: Using the record for CC(=O)OCOC(=O)CN(CC(=O)OCOC(C)=O)Cc1c(OC(C)=O)ccc2c1Oc1c(ccc(OC(C)=O)c1CN(CC(=O)OCOC(C)=O)CC(=O)OCOC(C)=O)C21OC(=O)c2ccccc21 [Calcein-AM] , report its cytotoxicity at 24 h, 4 µM.
stdout: 26.4

---

assayDetails: Cytotoxicity by LDH release (CyQUANT LDH Cytotoxicity Assay)
Type: cell-based
recordedConditions: human; HCE-2, 4 μM, 45 min contact, measured at 45 min; read-out: cytotoxicity (% of dead cells, LDH)
readoutLabel: cytotoxicity at 45 min, 4 µM
Reply with the number and its unit after it.

stdin: Using the record for CC(=O)OCOC(=O)CN(CC(=O)OCOC(C)=O)Cc1c(OC(C)=O)ccc2c1Oc1c(ccc(OC(C)=O)c1CN(CC(=O)OCOC(C)=O)CC(=O)OCOC(C)=O)C21OC(=O)c2ccccc21 , report its cytotoxicity at 45 min, 4 µM.
stdout: 0.6%
